Test system: Escherichia coli TOP10;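 further: peptides expressed intracellularly from a pBAD plasmid library in pooled LB shake-flask culture, induced with 0.3% L-arabinose, DNA abundance read by NGS, three biological replicates, DESeq2 with apeglm shrinkage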
Test: shrunken log2 fold change of peptide-encoding DNA abundance (4.5 h post-induction vs induction); higher = less antimicrobial activity (less host growth inhibition)
Settings: time post-induction: 4.5 h; library: site-saturation at positions 5, 18, 19, 20
ASSAY_READOUT: shrunken log2 fold change
// print number alone

Examples with answers:
1) RRIRGRPPRLPRPRPRPYVLPRP :: -0.114
2) RRIRCRPPRLPRPRPRPSKEPRP :: 0.0893
3) RRIRFRPPRLPRPRPRPSSPPRP :: -0.284
4) RRIRARPPRLPRPRPRPSGIPRP :: 0.0311
5) RRIRERPPRLPRPRPRPSKLPRP :: -1.06
6) RRIRIRPPRLPRPRPRPIPSPRP :: -0.193
7) RRIRLRPPRLPRPRPRPDAKPRP :: 0.0577
8) RRIRLRPPRLPRPRPRPLVWPRP :: 0.193

Request: // returns reported shrunken log2 fold change for input RRIRWRPPRLPRPRPRPTGVPRP
Response: 0.334

Request: What do we get for RRIRARPPRLPRPRPRPAFRPRP ?
Response: 0.355

Request: What do we get for RRIRQRPPRLPRPRPRPENGPRP ?
Response: -0.0161

Request: What do we get for RRIRHRPPRLPRPRPRPHAPPRP ?
Response: -0.0972

Request: What do we get for RRIRERPPRLPRPRPRPYCKPRP ?
Response: 0.0936

Request: What do we get for RRIRWRPPRLPRPRPRPMFTPRP ?
Response: -0.0283

Request: What do we get for RRIRFRPPRLPRPRPRPPHTPRP ?
Response: 0.126

Request: What do we get for RRIRWRPPRLPRPRPRPVTTPRP ?
Response: -0.0727

Request: What do we get for RRIRVRPPRLPRPRPRPNHVPRP ?
Response: -0.3

Request: What do we get for RRIRLRPPRLPRPRPRPQPNPRP ?
Response: -0.00696

Request: What do we get for RRIRRRPPRLPRPRPRPWSVPRP ?
Response: 0.0267
